Collected normalized growth values appear next to each entry.
- Measurement Protocol: chemical genetic growth profiling, strain panel (AID 1159580);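 further: tested at 20 µM; growth read once vehicle control cultures reached saturation at 30 °C; 1 = growth at the plate median or of vehicle wells; lower values mean less growth of the strain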
- Measurement Context: S. cerevisiae deletion strains, growth OD, locus YMR125W, strain sto1, hits give low values
Out of some 5,500 compounds screened, about 2,000 (36%) were called active. About 18% were inconclusive and are not listed. This is one part of the list.
Quantity Name: normalized growth

Compound	Quantity Name	Assay Result
CC(C)c1nc(N(C)S(C)(=O)=O)nc(-c2ccc(F)cc2)c1/C=C/[C@@H](O)C[C@@H](O)CC(=O)O	normalized growth	1.02
NC(=O)NC1NC(=O)NC1=O (stereo not drawn)	normalized growth	1
CN(C)CCC(c1ccccc1)c1ccccn1 (stereo not drawn)	normalized growth	1.01
CC(O)(P(=O)(O)O)P(=O)(O)O	normalized growth	0.979
O=c1[nH]c(=O)n(C2C[C@H](O)[C@@H](CO)O2)cc1C(F)(F)F (stereo partly drawn)	normalized growth	0.95
CC(=O)O[C@@H]1CC2C(C)(C)[C@H](O)CC[C@]2(C)C2CC[C@@]3(C)[C@H](c4ccoc4)OC(=O)C4OC43[C@@]21C (stereo partly drawn)	normalized growth	1
COP(=S)(OC)Oc1ccc([N+](=O)[O-])cc1	normalized growth	0.995
C=CCS(=O)C[C@H](N)C(=O)O (stereo partly drawn)	normalized growth	0.991
C=NC(C(=O)NC1C(=O)N2C1SC(C)(C)C2C(=O)O)c1ccccc1 (stereo not drawn)	normalized growth	0.929
CC(=O)C1CCC2C3CCC4C[C@H](O)CCC4(C)C3C[C@H](O)C12C (stereo partly drawn)	normalized growth	0.943
COC(=O)[C@H](c1ccccc1Cl)N1CCc2sccc2C1	normalized growth	0.993
CC(=O)N[C@@H](CCC(=O)O)C(=O)O	normalized growth	1.01
C1N2CN3CN1CN(C2)C3	normalized growth	0.975

----------
Collected normalized growth values appear next to each entry.
- Measurement Protocol: chemical genetic growth profiling, strain panel (AID 1159580)
- Measurement Context: S. cerevisiae deletion strains, growth OD, locus YKR001C, strain vps1, hits give low values
The campaign covered roughly 5,500 compounds. About 2,000 (36%) were called active. Not shown: some 18% with an inconclusive outcome. This is one part of the list.

Molecule	normalized growth
O=c1oc2ccccc2cc1O	1.02 (inactive)
CCCn1c(=O)c2[nH]c(C3CCCC3)nc2n(CCC)c1=O	0.964 (inactive)
O=C(O)CCCCCCCC(=O)O	0.981 (inactive)
COc1ccc2c(c1)OCC(Cc1ccc(OC)c(OC)c1)C2=O (stereo not drawn)	0.998 (inactive)
CC(C)c1nc(N(C)S(C)(=O)=O)nc(-c2ccc(F)cc2)c1/C=C/[C@@H](O)C[C@@H](O)CC(=O)O	1.03 (inactive)
NCCCCCC(=O)O	1.04 (inactive)
CN(C)CCC(c1ccccc1)c1ccccn1 (stereo not drawn)	1 (inactive)
Clc1ccc(C(c2ccccc2Cl)C(Cl)Cl)cc1 (stereo not drawn)	0.968 (inactive)
COc1ccc2oc(-c3ccccc3)c(OC)c(=O)c2c1	0.764 (active)
O=C(O)C(O)C(O)C(O)C(O)C(=O)O (stereo not drawn)	0.985 (inactive)
N[C@@H](C(=O)O)[C@@H](O)[C@H](O)[C@H](O)CO	1.04 (inactive)
CC(C)(S)[C@@H](N)C(=O)O	0.988 (inactive)
O=c1[nH]c(=O)n(C2C[C@H](O)[C@@H](CO)O2)cc1C(F)(F)F (stereo partly drawn)	0.982 (inactive)

----------
- Measurement Protocol: chemical genetic growth profiling, strain panel (AID 1159580)
- Measurement Context: S. cerevisiae deletion strains, growth OD, locus YDR195W, strain ref2
In all, about 5,500 compounds went through this assay and about 2,000 (36%) were called active. Roughly 18% stayed inconclusive and do not appear here. The list shows a part of the results.
Quantity Name: normalized growth

Compound	Assay Result
COC(=O)[C@@H]1OC(=O)C2OC23[C@@]1(C)CCC1[C@@]2(C)CCC(=O)C(C)(C)C2C[C@@H](OC(C)=O)[C@]13C (stereo partly drawn)	0.999
NC(N)=NCCN1CCCCCCC1	1.01
CCCCCCCCCCCCCC(=O)OC1C(C)C2(O)C(C=C(CO)CC3(O)C(=O)C(C)=CC32)C2C(C)(C)C12OC(C)=O (stereo not drawn)	0.96

----------
Collected normalized growth values appear next to each entry.
- Measurement Protocol: chemical genetic growth profiling, strain panel (AID 1159580)
- Measurement Context: S. cerevisiae deletion strains, growth OD, locus YBL061C, strain skt5, hits give low values
Screen size: about 5,500 compounds; about 2,000 (36%) were called active. Not shown: some 18% with an inconclusive outcome. Some of the results follow.
Quantity Name: normalized growth

Compound	Assay Result
COc1ccnc(CS(=O)c2nc3ccc(OC(F)F)cc3[nH]2)c1OC (stereo unspecified)	1.04
CC1(C)C(=O)[C@@H]2O[C@@H]2[C@@]2(C)C1C[C@@H](O)[C@]1(C)C2CC[C@@]2(C)[C@H](c3ccoc3)OC(=O)C3OC321 (stereo partly specified)	0.989
CC12CCCCC1(Br)[N+](=O)N2[O-] (stereo unspecified)	0.978
CC(=O)O[C@H]1CC[C@@]2(C)C(C[C@@H](OC(C)=O)[C@]3(C)C2CC[C@@]2(C)[C@H](c4ccoc4)OC(=O)[C@H]4O[C@]423)C1(C)C (stereo partly specified)	0.996
CCCNC(=O)NS(=O)(=O)c1ccc(Cl)cc1	1.01
Oc1c(Cl)cc(Cl)c(Cl)c1Cc1c(O)c(Cl)cc(Cl)c1Cl	0.0628

----------
- Measurement Protocol: chemical genetic growth profiling, strain panel (AID 1159580)
- Measurement Context: S. cerevisiae deletion strains, growth OD, locus YKL160W, strain elf1, hits give low values
Hit rate of the full screen: of about 5,500 compounds, about 2,000 (36%) were called active. Roughly 18% stayed inconclusive and do not appear here. The list shows a part of the results.
Decide using normalized growth alone. Strictly below 1: y. Equal to or above 1: n.

Compound	Class Label
COc1cc(C)c2c(=O)cc(-c3ccccc3)oc2c1	y
CC(=O)Oc1c2c(c3c(c1CC=C(C)C)O[C@]14C(=C[C@@H]5CC1C(C)(C)OC4(C/C=C(\C)C(=O)O)C5=O)C3=O)OC(C)(CCC=C(C)C)C=C2 (some centres not stated)	y
CC(=O)O[C@H]1C[C@@H](OC(C)=O)C(C)(C)C2C[C@@H](O)[C@]3(C)C(CC[C@@]4(C)[C@H](c5ccoc5)OC(=O)[C@H]5O[C@]543)[C@]21C (some centres not stated)	n

----------
- Measurement Protocol: chemical genetic growth profiling, strain panel (AID 1159580);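 further: tested at 20 µM; growth read once vehicle control cultures reached saturation at 30 °C; 1 = growth at the plate median or of vehicle wells; lower values mean less growth of the strain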
- Measurement Context: S. cerevisiae deletion strains, growth OD, locus YPR163C, strain tif3, hits give low values
In all, about 5,500 compounds went through this assay and about 2,000 (36%) were called active. About 18% were inconclusive and are not listed. This is one part of the list.
Decide using normalized growth alone. Strictly below 1: label 1. Equal to or above 1: label 0.

Compound	Class Label
COc1ccc2oc3ccccc3c(=O)c2c1	label 1
CC(=O)Oc1ccc2c(c1)CCC1C2CC[C@]2(C)C(=O)CCC12 (stereo not given in full)	label 0
Clc1ccc(COC(Cn2ccnc2)c2ccc(Cl)cc2Cl)cc1 (stereo not given)	label 1
CC12CCC3C(=CCc4cc(O)ccc43)C1CCC2=O (stereo not given)	label 1
CC(C)=CC1C(C(=O)OCc2cccc(Oc3ccccc3)c2)C1(C)C (stereo not given)	label 1
N[C@@H](C(=O)O)[C@@H](O)[C@H](O)[C@H](O)CO	label 0
NC(N)=NCCN1CCCCCCC1	label 0
NCCCC(=O)O	label 0
NC(C(=O)O)C(O)C(=O)O (stereo not given)	label 0
C[C@]12CCC3c4ccc(OC(=O)CCC(=O)O)cc4CCC3C1CCC2=O (stereo not given in full)	label 1

----------
- Measurement Protocol: chemical genetic growth profiling, strain panel (AID 1159580);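 further: tested at 20 µM; growth read once vehicle control cultures reached saturation at 30 °C; 1 = growth at the plate median or of vehicle wells; lower values mean less growth of the strain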
- Measurement Context: S. cerevisiae deletion strains, growth OD, locus YJL154C, strain vps35, hits give low values
Out of some 5,500 compounds screened, about 2,000 (36%) were called active. Inconclusive results (about 18%) are left out. Some of the results follow.

Compound	normalized growth
O=C(O)CCCCCCCC(=O)O	1.03 (inactive)
COc1cc(NS(C)(=O)=O)ccc1Cc1c2ccccc2nc2ccccc12	0.998 (inactive)
NCC[C@@H](O)C(=O)N[C@@H]1C[C@H](N)[C@@H](O[C@H]2O[C@H](CN)[C@@H](O)[C@H](O)[C@H]2O)[C@H](O)[C@H]1O[C@H]1O[C@H](CO)[C@@H](O)[C@H](N)C1O (some centres undefined)	1.03 (inactive)
C[C@]12CCC3c4ccc(OC(=O)c5ccccc5)cc4CCC3C1CCC2=O (some centres undefined)	0.986 (inactive)

----------
- Measurement Protocol: chemical genetic growth profiling, strain panel (AID 1159580);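 further: tested at 20 µM; growth read once vehicle control cultures reached saturation at 30 °C; 1 = growth at the plate median or of vehicle wells; lower values mean less growth of the strain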
- Measurement Context: S. cerevisiae deletion strains, growth OD, locus YAL026C, strain drs2
The campaign covered roughly 5,500 compounds. About 2,000 (36%) were called active. Another 18% or so got no clear call; they are omitted. Rule as the data show it: active = normalized growth mostly below about 0.91 (no sharp cut-off); inconclusive = no clear call, values can overlap the other calls; inactive = mostly above about 0.92. The list shows a part of the results.
Possible outcomes: t (active), f (inactive)

Compound	Class Label
CCN1C[C@@]2(COC)C3[C@@H](OC)[C@H]4[C@@H]1[C@]3(C(OC)C[C@H]2O)C1C[C@@]2(O)[C@H](OC(=O)c3ccccc3)C1[C@]4(OC(C)=O)[C@@H](O)[C@@H]2OC (some centres not stated)	f
COC[C@]12CN(C=O)C3[C@@H]4[C@H](OC)C1[C@]3(C1CC3(O)C(OC)C(O)C4(OC(C)=O)C1C3OC(=O)c1ccccc1)[C@@H](OC)C[C@H]2O (some centres not stated)	f
NC(N)=NCCCCN=C(N)N	f
Clc1ccc(COC(Cn2ccnc2)c2ccc(Cl)cc2Cl)c(Cl)c1 (configuration not stated)	t
CN[C@@H]1C(OC2[C@H](O[C@H]3[C@H](O)[C@@H](O)[C@H](N=C(N)N)[C@@H](O)[C@@H]3N=C(N)N)OC(C)[C@]2(O)CO)OC(CO)C(O)C1O (some centres not stated)	f
NC(N)=NCCN1CCCCCCC1	f
Clc1ccc(CO/N=C(/Cn2ccnc2)c2ccc(Cl)cc2Cl)c(Cl)c1	t
